# Target of assay: T1, Human PD-1 protein with histidine and avi tags (ACRO Biosystems, PD1-H82E4) (human, UniProt Q15116 25-167)
# T1 construct: Captured on streptavidin (SA) sensors in the BLI assay; not shown: histidine and avi tags
# T1 sequence (Q15116 25-167 limits assumed): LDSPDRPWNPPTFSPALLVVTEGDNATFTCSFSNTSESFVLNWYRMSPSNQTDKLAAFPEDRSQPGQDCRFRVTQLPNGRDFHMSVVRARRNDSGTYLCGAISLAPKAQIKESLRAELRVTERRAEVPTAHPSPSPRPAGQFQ
# Assay overview: BLI (Octet Red96e), PD-1 captured on SA sensor, 1:1 local fit
binders and their reported pKd
Kindly note that pKd refers to -log10 of the concentration in mol/L and answer with the value alone.

- Binder: "PR005093 (VHH, Monovalent single-domain (VH) variant of PR002481 with Flag-6His tag) VHH: EVQLVETGGGLIQPGGSLRLSCAASGFNVSSHYMSWVRQAPGKGREWVSIIDGGGSTYYADSVKGRFTISRDNSKNRLYLQMNSLRAEDTAMYYCARATRVREANGYNYPFNYWGQGTLVTVSS"
  pKd: 8.32

Query: Consider the binder PR005144 (VHH, Monovalent single-domain (VH) variant of PR002481 with Flag-6His tag) VHH: EVQLVETGGGLIQPGGSLRLSCAASGFNVSFYYMSWVRQAPGKGREWVSIIDKSGSTYYAASVKGRFTISRDNSKNRLYLQMNSLRAEDTAMYYCARATEVREKNGYNYPFNYWGQGTLVTVSS and give its measured pKd.
Reply: 8.35
